# assay_text: Intravenous and oral pharmacokinetics in mice
# Format: in vivo, Balb/c mice
# condition_set: male, mouse, plasma; Balb C mice, oral dose of 10 mg/Kg; read-out: t1/2, β (converted)
measured_endpoint: half-life

Query: half-life; subject: COc1nc(OCc2cccc(-c3ccccc3)c2C)nc(OC)c1CN1CCCC[C@H]1C(=O)O [Compound 45]
6.32 h

====

# target: CYP 2C9 (Homo sapiens)
# Sequence (P11712 whole entry): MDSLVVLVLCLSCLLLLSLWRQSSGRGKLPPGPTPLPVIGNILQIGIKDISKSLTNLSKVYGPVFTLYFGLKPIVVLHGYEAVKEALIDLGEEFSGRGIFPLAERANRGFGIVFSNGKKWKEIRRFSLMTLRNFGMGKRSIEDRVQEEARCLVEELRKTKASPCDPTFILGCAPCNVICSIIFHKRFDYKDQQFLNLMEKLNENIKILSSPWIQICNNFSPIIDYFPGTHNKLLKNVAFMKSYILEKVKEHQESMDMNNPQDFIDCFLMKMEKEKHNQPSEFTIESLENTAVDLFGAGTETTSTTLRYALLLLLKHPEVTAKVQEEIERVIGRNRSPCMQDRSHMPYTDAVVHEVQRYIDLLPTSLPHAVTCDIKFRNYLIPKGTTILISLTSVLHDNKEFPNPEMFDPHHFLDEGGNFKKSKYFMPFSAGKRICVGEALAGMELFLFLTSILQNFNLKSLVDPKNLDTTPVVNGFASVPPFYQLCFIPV
measured_endpoint: IC50

Bench note: what IC50 did COc1nc(OCc2cccc(-c3ccccc3)c2C)nc(OC)c1CN1CCCC[C@H]1C(=O)O [Compound 45] show?
> 10 µM

====

# assay_text: Intravenous and oral pharmacokinetics in mice
# Type: in vivo, Balb/c mice
# condition_set: male, mouse, plasma; Balb C mice, IV dose of 2 mg/Kg; read-out: t1/2, β (converted)
measured_endpoint: half-life (h)
State just the number; it will be interpreted in h.

Look up half-life for this compound: COc1nc(OCc2cccc(-c3ccccc3)c2C)nc(OC)c1CN1CCCC[C@H]1C(=O)O
1.27

====

# assay_text: Intravenous and oral pharmacokinetics in mice
# Type: in vivo, Balb/c mice
# condition_set: male, Balb/c, mouse, plasma, iv, 2 mg/kg, Balb C mice, IV dose of 2 mg/Kg; read-out: Vdss
measured_endpoint: Vd

Look up Vd: COc1nc(OCc2cccc(-c3ccccc3)c2C)nc(OC)c1CN1CCCC[C@H]1C(=O)O
1.2 L/kg

====

# target: CYP3A4 (Homo sapiens, UniProt P08684)
# Sequence (P08684 whole entry): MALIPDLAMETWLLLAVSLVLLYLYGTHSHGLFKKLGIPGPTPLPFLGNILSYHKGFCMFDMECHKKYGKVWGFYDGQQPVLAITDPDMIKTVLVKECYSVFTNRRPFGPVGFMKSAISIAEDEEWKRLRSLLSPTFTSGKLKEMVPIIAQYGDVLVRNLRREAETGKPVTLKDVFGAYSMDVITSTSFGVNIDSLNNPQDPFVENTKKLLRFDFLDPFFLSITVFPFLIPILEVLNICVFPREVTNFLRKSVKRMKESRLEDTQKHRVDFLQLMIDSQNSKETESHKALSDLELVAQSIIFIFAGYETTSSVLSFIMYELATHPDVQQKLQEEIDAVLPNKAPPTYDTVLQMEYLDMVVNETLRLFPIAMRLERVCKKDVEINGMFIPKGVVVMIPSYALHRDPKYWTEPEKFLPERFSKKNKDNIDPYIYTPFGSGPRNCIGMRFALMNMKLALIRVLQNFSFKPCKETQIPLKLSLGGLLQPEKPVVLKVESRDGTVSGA
measured_endpoint: IC50

Write down the reported IC50 of COc1nc(OCc2cccc(-c3ccccc3)c2C)nc(OC)c1CN1CCCC[C@H]1C(=O)O , test system: CYP3A4 (Homo sapiens, UniProt P08684).
> 10 µM

====

# target: PD-1/PD-L1 interaction (Homo sapiens, UniProt Q9NZQ7)
# Construct: Tag1 or Tag2 (undisclosed kit tag)
# Sequence (Q9NZQ7 19-238 limits assumed): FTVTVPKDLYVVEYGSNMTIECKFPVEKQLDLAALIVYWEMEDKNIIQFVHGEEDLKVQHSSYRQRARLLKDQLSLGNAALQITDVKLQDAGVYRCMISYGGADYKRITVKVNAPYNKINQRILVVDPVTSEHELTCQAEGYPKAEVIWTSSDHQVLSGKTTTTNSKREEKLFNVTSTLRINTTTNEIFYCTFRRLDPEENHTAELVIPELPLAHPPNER
# assay_text: PD-1/PD-L1 Homogenous Time-Resolved Fluorescence (HTRF) binding assay
# condition_set: Biochemical PD1/PD-L1 inhibition
# Procedure: PD-L1 Enzyme Assay: Homogenous Time-Resolved Fluorescence (HTRF) Binding Assay All binding studies were performed using PD-1/PD-L1 Binding Assay Kit from CisBio (Catalog #63ADK000CPAPEG), according to the manufacturer's protocol. The interaction between Tag1-PD-1 and […] was detected by anti-Tag1-Eu^3+ (HTRF donor) and anti-Tag2-XL665 (HTRF acceptor). […] The fluorescence emission was read at two different wavelengths (665 nm and 620 nm) on a BMG PheraStar® multiplate reader. […]
pIC50: −log10 of the molar value.
measured_endpoint: pIC50

Examples with answers:
COc1nc(OCc2cccc(-c3ccccc3)c2C)nc(OC)c1CN1CCCC2(CCNC2=O)C1 (stereo not shown) : > 7.00
CCOc1nc(OCc2cccc(-c3ccccc3)c2C)nc(OCC)c1CN1CCCC[C@H]1C(=O)O : 6.30 to 7.00
CCOc1nc(OCc2cccc(-c3ccccc3)c2C)ncc1CNCCNC(C)=O : < 6.30
COc1ccc(-c2cccc(COc3nc(OC)c(CNCCNC(C)=O)c(OC)n3)c2C)cc1OC : < 6.30
CCOc1nc(OCc2cccc(-c3ccccc3)c2C)ncc1CN(C)CC(=O)O : < 6.30

Enter reported pIC50 observed with PD-1/PD-L1 interaction (Homo sapiens, UniProt Q9NZQ7) for COc1nc(OCc2cccc(-c3ccccc3)c2C)ncc1CN1CCN(C(C)=O)C[C@H]1C(=O)O
< 6.30

Identify the measured pIC50 of COc1nc(OCc2cccc(-c3ccccc3)c2C)ncc1CN1CCCC[C@H]1CC(=O)O for PD-1/PD-L1 interaction (Homo sapiens, UniProt Q9NZQ7).
6.30 to 7.00

For PD-1/PD-L1 interaction (Homo sapiens, UniProt Q9NZQ7), provide pIC50 of CCOc1nc(OCc2cccc(-c3ccccc3)c2C)nc(OCC)c1CN1C[C@H](O)C[C@H]1C(=O)O please.
6.30 to 7.00

What pIC50 appears in the records for this compound with PD-1/PD-L1 interaction (Homo sapiens, UniProt Q9NZQ7)? Cc1c(COc2ncc(CN3CCCC[C@H]3C(=O)O)c(OCCCCO)n2)cccc1-c1ccccc1
6.30 to 7.00

Lab note: need pIC50 for COc1nc(OCc2cccc(-c3ccccc3)c2C)ncc1CN1CC2(CC2)C[C@H]1C(=O)O on PD-1/PD-L1 interaction (Homo sapiens, UniProt Q9NZQ7), anyone have it?
< 6.30
